Reference source: patent US20160355530A1

# Test system: HCV 1b-BB7 subgenomic replicon
# methodSummary: microbe, parasite or virus in culture
# Type: cell-based, HCV genotype 1b
# testConditions: Hepatitis C virus, stable replicon, strain 1b BB7, 5% FBS + 40% human plasma; read-out: 1b BB7 5% FBS + 40% Human Plasma EC50
pEC50: −log10 of the molar value.

molecule | measuredOn | pEC50
CC(C)(O)C(O)CCN(c1cc2oc(-c3ccc(F)cc3)c(C3=NOCN3)c2cc1C1CC1)S(C)(=O)=O (stereo not drawn) | HCV 1b-BB7 subgenomic replicon | 5.57
CC1NC(c2c(-c3ccc(F)cc3)oc3cc(N(CC[S+](C)[O-])S(C)(=O)=O)c(C4CC4)cc23)=NO1 (stereo not drawn) | HCV 1b-BB7 subgenomic replicon | 6.84
CC(C)(O)C(O)CCN(c1cc2oc(-c3ccc(F)cc3)c(-c3ncc[nH]3)c2cc1C1CC1)S(C)(=O)=O (stereo not drawn) | HCV 1b-BB7 subgenomic replicon | 6.84

----------
# Tested on: HCV NS5B polymerase 1a-H77-C316Y
# methodSummary: biochemical
# Parameters: species or system HCV genotype 1a
# testConditions: ratio of enzyme IC50s, 1a H77-C316Y / 1a H77

compound | C316Y/1a Fold Resistance [fold]
CS(=O)(=O)N(CCCc1cc(O)no1)c1cc2oc(-c3ccc(F)cc3)c(-c3ncc[nH]3)c2cc1C1CC1 [Example 7] | 4
CNC(=O)CCCN(c1cc2oc(-c3ccc(F)cc3)c(-c3ncc[nH]3)c2cc1C1CC1)S(C)(=O)=O [Example 107] | 22
CS(=O)(=O)N(Cc1cnc(-c2ccc3[nH]ccc3c2)s1)c1cc2oc(-c3ccc(F)cc3)c(-c3ncc[nH]3)c2cc1C1CC1 [Example 31] | 50
CC(C)CCN(c1cc2oc(-c3ccc(Nc4ccccc4)cc3)c(-c3ncc[nH]3)c2cc1C1CC1)S(C)(=O)=O [Example 18] | 4
CS(=O)(=O)N(CCCC(=O)O)c1cc2oc(-c3ccc(F)cc3)c(C3=NOCCN3)c2cc1C1CC1 [Example 135] | 11
CS(=O)(=O)CCCN(c1cc2oc(-c3ccc(F)cc3)c(C3=NOCCN3)c2cc1C1CC1)S(C)(=O)=O [Example 140] | 8
CS(=O)(=O)N(CCCN1CCS(=O)(=O)CC1)c1cc2oc(-c3ccc(F)cc3)c(C3=NOCCN3)c2cc1C1CC1 [Example 114] | 10
CS(=O)(=O)N(CCCCC(=O)O)c1cc2oc(-c3ccc(F)cc3)c(-c3ncc[nH]3)c2cc1C1CC1 [Example 92] | 9
CS(=O)(=O)N(CCCCO)c1cc2oc(-c3ccc(F)cc3)c(-c3noc(=O)[nH]3)c2cc1C1CC1 [Example 185] | 9
CS(=O)(=O)N(CCCO)c1cc2oc(-c3ccc(F)cc3)c(-c3ncc[nH]3)c2cc1C1CC1 [Example 65] | 24
CC(C)(O)CCN(c1cc2oc(-c3ccc(F)cc3)c(C3=NOCCN3)c2cc1C1CC1)S(C)(=O)=O [Example 125] | 10
CS(=O)(=O)N(CCN1CCCC1)c1cc2oc(-c3ccc(F)cc3)c(C3=NOCCN3)c2cc1C1CC1 [Example 128] | 22
CC(C)N(c1cc2oc(-c3ccc(F)cc3)c(-c3ncc[nH]3)c2cc1C1CC1)S(C)(=O)=O [Example 52] | 286
CCOC(=O)CN(c1cc2oc(-c3ccc(F)cc3)c(-c3ncc[nH]3)c2cc1C1CC1)S(C)(=O)=O [Example 33] | 181
CS(=O)(=O)N(CCCCF)c1cc2oc(-c3ccc(F)cc3)c(-c3ncc[nH]3)c2cc1C1CC1 [Example 83] | 14
C[S+]([O-])CCCN(c1cc2oc(-c3ccc(F)cc3)c(C3=NOCCN3)c2cc1C1CC1)S(C)(=O)=O (stereo not drawn) [Example 139] | 11
Cc1ccc(C)n1-c1nc(CCCN(c2cc3oc(-c4ccc(F)cc4)c(-c4ncc[nH]4)c3cc2C2CC2)S(C)(=O)=O)cs1 [Example 62] | 65
CS(=O)(=O)N(Cc1cnc(-c2ccc3nc[nH]c3c2)s1)c1ccc2c(-c3ncc[nH]3)c(-c3ccccc3)oc2c1 [Example 3] | 4
CS(=O)(=O)N(CCN1CCCC1)c1cc2oc(-c3ccc(F)cc3)c(-c3ncc[nH]3)c2cc1C1CC1 [Example 81] | 151
CCC1NC(c2c(-c3ccc(F)cc3)oc3cc(N(CCC(C)C)S(C)(=O)=O)c(C4CC4)cc23)=NO1 (stereo not drawn) [Example 155] | 10
CC(C)CCN(c1cc2oc(-c3ccc(F)cc3)c(-c3nccc(=O)[nH]3)c2cc1C1CC1)S(C)(=O)=O [Example 161] | 5

----------
# System: HCV 1a-H77 subgenomic replicon
# methodSummary: microbe, parasite or virus in culture
# Assay type: cell-based, HCV genotype 1a
# testConditions: Hepatitis C virus, stable replicon, strain 1a H77, 5% FBS, no human plasma; read-out: 1a H77 5% FBS EC50
EC50 under 50 nM gets TRUE, anything at or over 50 nM gets FALSE.

compound | measuredOn | classification
CS(=O)(=O)N(CCCO)c1cc2oc(-c3ccc(F)cc3)c(-c3ncc[nH]3)c2cc1C1CC1 [Example 65] | HCV 1a-H77 subgenomic replicon | TRUE
Cc1cnc(-c2c(-c3ccc(F)cc3)oc3cc(N(CCC(C)C)S(C)(=O)=O)c(C4CC4)cc23)[nH]1 [Example 172] | HCV 1a-H77 subgenomic replicon | FALSE
CC(C)CCN(c1cc2oc(-c3ccc(Nc4ccccc4)cc3)c(-c3ncc[nH]3)c2cc1C1CC1)S(C)(=O)=O [Example 18] | HCV 1a-H77 subgenomic replicon | TRUE
CC(C)CCN(c1cn2nc(-c3ccc(F)cc3)c(-c3ncc[nH]3)c2cc1C1CC1)S(C)(=O)=O [Example 17] | HCV 1a-H77 subgenomic replicon | FALSE
CC(C)(O)C(=O)CCN(c1cc2oc(-c3ccc(F)cc3)c(-c3ncc[nH]3)c2cc1C1CC1)S(C)(=O)=O [Example 106] | HCV 1a-H77 subgenomic replicon | FALSE
CS(=O)(=O)N(CCO)c1cc2oc(-c3ccc(F)cc3)c(-c3ncc[nH]3)c2cc1C1CC1 [Example 109] | HCV 1a-H77 subgenomic replicon | TRUE
CS(=O)(=O)N(CCO)c1cc2oc(-c3ccc(F)cc3)c(C3=NOCCN3)c2cc1C1CC1 [Example 136] | HCV 1a-H77 subgenomic replicon | TRUE

----------
Listed here are molecules together with their documented pEC50.
# System: HCV 1a-H77 subgenomic replicon
# methodSummary: microbe, parasite or virus in culture
# Format: cell-based, HCV genotype 1a
# testConditions: Hepatitis C virus, stable replicon, strain 1a H77, 5% FBS; read-out: 1a H77 5% FBS EC50
pEC50: −log10 of the molar value.
readout: pEC50

molecule | measuredOn | reportedValue
[2H]C([2H])(CCCCC)N(c1cc2oc(-c3ccc(F)cc3)c(-c3ncc[nH]3)c2cc1C1CC1)S(C)(=O)=O | HCV 1a-H77 subgenomic replicon | 7.22
CS(=O)(=O)N(CC1CCCC1)c1cc2oc(-c3ccc(F)cc3)c(-c3ncc[nH]3)c2cc1C1CC1 | HCV 1a-H77 subgenomic replicon | 7.15
CS(=O)(=O)N(CCCN1CCS(=O)(=O)CC1)c1cc2oc(-c3ccc(F)cc3)c(C3=NOCCN3)c2cc1C1CC1 | HCV 1a-H77 subgenomic replicon | 7.57
CS(=O)(=O)N(CCCC(F)(F)F)c1cc2oc(-c3ccc(F)cc3)c(C3=NOCCN3)c2cc1C1CC1 | HCV 1a-H77 subgenomic replicon | 7.66
CS(=O)(=O)Nc1cc2oc(-c3ccc(F)cc3)c(-c3nc(Cl)c[nH]3)c2cc1C1CC1 | HCV 1a-H77 subgenomic replicon | 6.00
CS(=O)(=O)N(CCCN1CCOCC1)c1cc2oc(-c3ccc(F)cc3)c(-c3ncc[nH]3)c2cc1C1CC1 | HCV 1a-H77 subgenomic replicon | 7.70
CS(=O)(=O)N(CC1CCOCC1)c1cc2oc(-c3ccc(F)cc3)c(-c3ncc[nH]3)c2cc1C1CC1 | HCV 1a-H77 subgenomic replicon | 7.99
CS(=O)(=O)N(CC1CC1)c1cc2oc(-c3ccc(F)cc3)c(-c3ncc[nH]3)c2cc1C1CC1 | HCV 1a-H77 subgenomic replicon | 6.95
CS(=O)(=O)N(CCCC#N)c1cc2oc(-c3ccc(F)cc3)c(-c3ncc[nH]3)c2cc1C1CC1 | HCV 1a-H77 subgenomic replicon | 8.43
CS(=O)(=O)N(CCCCCO)c1cc2oc(-c3ccc(F)cc3)c(C3=NOCCN3)c2cc1C1CC1 | HCV 1a-H77 subgenomic replicon | 8.19
CC(C)CN(c1cc2oc(-c3ccc(F)cc3)c(-c3ncc[nH]3)c2cc1C1CC1)S(C)(=O)=O | HCV 1a-H77 subgenomic replicon | 7.22
CC1NC(c2c(-c3ccc(F)cc3)oc3cc(N(CC[S+](C)[O-])S(C)(=O)=O)c(C4CC4)cc23)=NO1 (stereo not shown) | HCV 1a-H77 subgenomic replicon | 7.83
CS(=O)(=O)N(CCCS(=O)(=O)N1CCOCC1)c1cc2oc(-c3ccc(F)cc3)c(-c3ncc[nH]3)c2cc1C1CC1 | HCV 1a-H77 subgenomic replicon | 7.83
CS(=O)(=O)N(CCCN1CCCC1)c1cc2oc(-c3ccc(F)cc3)c(C3=NOCCN3)c2cc1C1CC1 | HCV 1a-H77 subgenomic replicon | 6.85
CS(=O)(=O)N(CC1CCCO1)c1cc2oc(-c3ccc(F)cc3)c(-c3ncc[nH]3)c2cc1C1CC1 (stereo not shown) | HCV 1a-H77 subgenomic replicon | 7.16
CS(=O)(=O)N(CCCn1cccc1)c1cc2oc(-c3ccc(F)cc3)c(C3=NOCCN3)c2cc1C1CC1 | HCV 1a-H77 subgenomic replicon | 7.71
CS(=O)(=O)N(CCCC(=O)O)c1cc2oc(-c3ccc(F)cc3)c(C3=NOCCN3)c2cc1C1CC1 | HCV 1a-H77 subgenomic replicon | 6.01
Cn1cnc2ccc(-c3ncc(CN(c4ccc5c(-c6ncc[nH]6)c(-c6ccccc6)oc5c4)S(C)(=O)=O)s3)cc21 | HCV 1a-H77 subgenomic replicon | 6.97
CS(=O)(=O)N(CCCc1noc(=S)[nH]1)c1cc2oc(-c3ccc(F)cc3)c(C3=NOCCN3)c2cc1C1CC1 | HCV 1a-H77 subgenomic replicon | 6.98
